- Test system: standard staphylococci (S. aureus, S. epidermidis)
- assayText: MIC, standard Gram-positive strains as a group
- Format: cell-based
- conditionSummary: Staphylococcus aureus; range over standard Gram-positive strains; read-out: MIC against standard staphylococci
readoutType: MIC

C=CCCCCC(=O)N1CCCC2CN(c3c(F)cc4c(=O)c(C(=O)O)cn(C5CC5)c4c3OC)CC21 (stereo not drawn) [Compound 10m] :: 2 to 4 µg/mL
CC/C=C\C/C=C\C/C=C\C/C=C\C/C=C\C/C=C\CCC(=O)N1CCCC2CN(c3c(F)cc4c(=O)c(C(=O)O)cn(C5CC5)c4c3OC)CC21 (stereo not drawn) :: 2 to 4 µg/mL
CCCCCCCC/C=C/CCCCCCCC(=O)N1CCCC2CN(c3c(F)cc4c(=O)c(C(=O)O)cn(C5CC5)c4c3OC)CC21 (stereo not drawn) :: > 32 µg/mL
C/C=C/C(=O)N1CCCC2CN(c3c(F)cc4c(=O)c(C(=O)O)cn(C5CC5)c4c3OC)CC21 (stereo not drawn) :: 0.5 to 2 µg/mL
CC/C=C\C/C=C\C/C=C\CCCCCCCC(=O)N1CCCC2CN(c3c(F)cc4c(=O)c(C(=O)O)cn(C5CC5)c4c3OC)CC21 (stereo not drawn) :: 8 to 32 µg/mL

Name the recorded MIC for COc1c(N2CC3CCCN(C(=O)/C=C(\C)CCC=C(C)C)C3C2)c(F)cc2c(=O)c(C(=O)O)cn(C3CC3)c12 (stereo not drawn) .
8 to 32 µg/mL

Cited source for all entries: paper PMC9181188
